System: Salmonella thyphimurium strain TA 98
Test: Ames mutagenicity test (back mutation)
Assay type: cell-based
Set-up: key: -: no back mutation; (+): slight back mutuation; +: increasing back mutation; ++: increasing back mutation
Conditions: with (+) S9-Mix
quantity-kind: Ames test result, TA 98

Need Ames test result, TA 98, item COc1ccc(N)cc1N
++

So what does the record say about Ames test result, TA 98 for Nc1ccc(OC(F)(F)C(F)F)c(N)c1 ?
+

Could you share which Ames test result, TA 98 value was measured for CCOc1ccc(N)cc1N ?
++

Data request, read-out Ames test result, TA 98, for Cc1cc(OC(F)(F)C(F)F)c(N)cc1N
-
